The origin of these recorded values is the supplement of paper PMC10126150.

Tested on: ATP;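 further: ATP exposure 15 min at 22 °C before imaging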
Test: switch fluorescence ratio, 500 uM ATP over buffer (Cy3 cluster intensity, sum of 5 cycles each) (fold (ratio)); higher = stronger signal-on switching upon ATP binding; sequences stand for … in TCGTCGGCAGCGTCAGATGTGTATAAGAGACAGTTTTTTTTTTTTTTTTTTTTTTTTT…TC
Settings: aptamer strand: ATP DNA aptamer (quencher-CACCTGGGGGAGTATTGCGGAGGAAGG + anchor), 100 nM annealed; ATP concentration: 500 uM
Reported switch fluorescence ratio values are given for each entry in this list.
Answer as a number with no unit attached.

| chain | experimental target | switch fluorescence ratio |
| --- | --- | --- |
| ACTTTGGGCA | ATP | 0.996 |
| TGCATGTCCT | ATP | 1.03 |

switch fluorescence ratio of GGGCATTTTT , assay on ATP, is 0.982

Query ATATTAGGCA on ATP; switch fluorescence ratio returned: 1.01

Form field, switch fluorescence ratio with ATP, item GCTAGTAGTC : 1.01

Observed switch fluorescence ratio on ATP, entry GTGGTTATCG , equals 1.02

Result for TCCTCCGTGG , tested on ATP, switch fluorescence ratio: 2.56

Form: item AAAGTCTCGT ; test system ATP; switch fluorescence ratio: 0.972

// assay ATP, entry TGGGGTTGAG , switch fluorescence ratio value = 0.984

// returns switch fluorescence ratio for TGATGGATAA with ATP; value = 1.01

The sequence GCTTATCTAA on ATP: switch fluorescence ratio was 0.997

switch fluorescence ratio for ATP with input TGATTCTTAT equals 0.97

// sequence TTTGATCGCA , assay ATP, switch fluorescence ratio value: 0.999

Param item: GCCGCCTTTT ; param system: ATP; output switch fluorescence ratio: 1.02

* * *

Test system: ATP;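 further: ATP exposure 15 min at 22 °C before imaging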
Assay: switch fluorescence ratio, 500 uM ATP over buffer (Cy3 cluster intensity, sum of 5 cycles each) (fold (ratio)); higher = stronger signal-on switching upon ATP binding; sequences stand for … in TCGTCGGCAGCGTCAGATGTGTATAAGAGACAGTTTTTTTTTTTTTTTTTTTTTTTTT…TC
Conditions: aptamer strand: ATP DNA aptamer (quencher-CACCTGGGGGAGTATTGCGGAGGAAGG + anchor), 100 nM annealed; ATP concentration: 500 uM
Rule: switch fluorescence ratio of 1 or more gives Yes; anything lower gives No.

As a guide, the following entries are already answered.
| chain | class label |
| --- | --- |
| TCTATTGGTT | No |
| GCACCAAGGA | Yes |
| AGACAGGGGT | Yes |

Query :: Identify whether the reported switch fluorescence ratio of the following sequence is 1 or greater: GCCCTCCTGC
Result :: Yes

Query :: Please tell me: is the sequence CATGTTGCGA at or over 1 in terms of switch fluorescence ratio?
Result :: Yes

Query :: Textbook exercise: given the entry CAGGGGCAGC , state whether its switch fluorescence ratio is greater than or equal to 1.
Result :: No

Query :: Identify whether the reported switch fluorescence ratio of the following sequence is 1 or greater: CCTGAGGGGA
Result :: Yes

Query :: Hello, I need to know if TTGAACTTGT has measured switch fluorescence ratio not below 1. Thanks!
Result :: Yes

Query :: Please tell me: is the sequence CGCGATTATT at or over 1 in terms of switch fluorescence ratio?
Result :: Yes

* * *

Here the recorded switch fluorescence ratio is given for each entry.
Test system: ATP;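 further: ATP exposure 15 min at 22 °C before imaging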
Test: switch fluorescence ratio, 500 uM ATP over buffer (Cy3 cluster intensity, sum of 5 cycles each) (fold (ratio)); higher = stronger signal-on switching upon ATP binding; sequences stand for … in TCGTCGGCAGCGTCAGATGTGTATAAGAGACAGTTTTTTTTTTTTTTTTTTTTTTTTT…TC
Settings: aptamer strand: ATP DNA aptamer (quencher-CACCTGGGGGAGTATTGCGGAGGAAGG + anchor), 100 nM annealed; ATP concentration: 500 uM

Here's what some known entries look like.
| chain | result |
| --- | --- |
| AATCAGGCGA | 1.01 |
| AATTAAAGGG | 1.03 |
| TTTGATAAGT | 1.06 |
| TGGATTAGAG | 0.967 |
| GTGCGCATGG | 1.13 |

Memo: CGTACGGGTG , reported switch fluorescence ratio: 1

// switch fluorescence ratio value for CGTGTTTATA : 0.99

* * *

System: ATP;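 further: ATP exposure 15 min at 22 °C before imaging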
Assay: switch fluorescence ratio, 500 uM ATP over buffer (Cy3 cluster intensity, sum of 5 cycles each) (fold (ratio)); higher = stronger signal-on switching upon ATP binding; sequences stand for … in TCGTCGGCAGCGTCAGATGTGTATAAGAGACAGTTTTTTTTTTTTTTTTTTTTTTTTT…TC
Conditions: aptamer strand: ATP DNA aptamer (quencher-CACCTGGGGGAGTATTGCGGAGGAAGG + anchor), 100 nM annealed; ATP concentration: 500 uM
switch fluorescence ratio by entry:

| chain | result |
| --- | --- |
| GATTAGATGT | 0.992 |
| ACGTAAACGC | 1.09 |
| TCCAAGTCGA | 1.04 |
| TTCCTGGAC | 1.7 |
| GAGTGGAGGC | 1.03 |

Lab note: sequence GTTTGCTGGT tested on ATP; recorded switch fluorescence ratio was 1

Record TACAAAAAAT has ATP switch fluorescence ratio equal to 1.03

Reported switch fluorescence ratio (ATP) for entry GGGGGAAAAT is 0.993

The sequence TGGAAAACTT , tested on ATP, showed switch fluorescence ratio of 1.11

Kindly note: ATP, ACCTTACTTA , switch fluorescence ratio value reported: 1.29

* * *

Test system: ATP;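 further: ATP exposure 15 min at 22 °C before imaging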
Assay: switch fluorescence ratio, 500 uM ATP over buffer (Cy3 cluster intensity, sum of 5 cycles each) (fold (ratio)); higher = stronger signal-on switching upon ATP binding; sequences stand for … in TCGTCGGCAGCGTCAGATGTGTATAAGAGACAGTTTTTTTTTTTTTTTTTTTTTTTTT…TC
Conditions: aptamer strand: ATP DNA aptamer (quencher-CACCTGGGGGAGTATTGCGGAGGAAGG + anchor), 100 nM annealed; ATP concentration: 500 uM
Classification field: YES = switch fluorescence ratio at or over 1; NO = switch fluorescence ratio under 1.

Known results for sequences:
| chain | experimental target | class label |
| --- | --- | --- |
| CTCGCGGGTG | ATP | YES |
| CATTCGCTTT | ATP | YES |

Query :: Determine whether this sequence has switch fluorescence ratio no lower than 1: GATATAACAT
Result :: YES

Query :: Given the entry ATTCAGTTGC , answer whether its switch fluorescence ratio meets or surpasses 1.
Result :: YES

Query :: Check if switch fluorescence ratio >= 1 (inclusive). Item: TCGTTGAGGG
Result :: NO

Query :: Test whether the sequence GATGATGTTC records switch fluorescence ratio of 1 or higher.
Result :: NO

Query :: Test whether the sequence GGACCATGAC records switch fluorescence ratio of 1 or higher.
Result :: YES

Query :: Please tell me: is the sequence AGGGTACTGT at or over 1 in terms of switch fluorescence ratio?
Result :: YES

Query :: Check if switch fluorescence ratio >= 1 (inclusive). Item: AAAAGCATGT
Result :: YES

Query :: API: above_or_equal(metric=switch fluorescence ratio, cutoff=1) for item TTCCCCCTTT
Result :: YES

Query :: Item TTAGAGACGT with switch fluorescence ratio of 1 or above?
Result :: YES

Query :: Could you tell me if the measured switch fluorescence ratio of TTTGTTTCAC reaches 1 or more?
Result :: YES

Query :: Does GCTTTAGTCA have a reported switch fluorescence ratio of at least 1?
Result :: NO

Query :: # bool: switch fluorescence ratio of GCGATAGCAG >= 1
Result :: YES

Query :: Kindly determine if switch fluorescence ratio recorded for GAGTTGACGG is above or exactly 1.
Result :: YES

Query :: Item TTTAGAATAC with switch fluorescence ratio of 1 or above?
Result :: YES

Query :: Hi, just wondering whether TAGTGGGGTG shows switch fluorescence ratio of 1 or higher.
Result :: NO

Query :: Confirm if switch fluorescence ratio reported for the sequence CTAGACAGGG is 1 or above.
Result :: YES

* * *

Test system: ATP;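 further: ATP exposure 15 min at 22 °C before imaging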
Assay: switch fluorescence ratio, 500 uM ATP over buffer (Cy3 cluster intensity, sum of 5 cycles each) (fold (ratio)); higher = stronger signal-on switching upon ATP binding; sequences stand for … in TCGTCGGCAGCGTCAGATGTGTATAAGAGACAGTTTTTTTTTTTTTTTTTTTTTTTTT…TC
Details: aptamer strand: ATP DNA aptamer (quencher-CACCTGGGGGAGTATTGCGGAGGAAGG + anchor), 100 nM annealed; ATP concentration: 500 uM
Overview of reported switch fluorescence ratio across a group of sequences:
The answer should be written as a number, with no unit following it.

These recorded examples may help you get a feel for the data.
| chain | switch fluorescence ratio |
| --- | --- |
| GGTTCAGGTA | 0.988 |
| GGTCATCTTG | 0.975 |

GET /value?item= GTTATGGGGC &field=switch fluorescence ratio returns 0.966

# sequence ATATTTCATT ; its switch fluorescence ratio = 0.961

// recorded switch fluorescence ratio for CGGAGGTAGC : 1.03

The measured switch fluorescence ratio associated with GCGGGTAAGC reads 1.05

Record AATGGGGGGC . Reported switch fluorescence ratio: 1

Noted for GGCAGGGGAA : its switch fluorescence ratio reads 1.01

The sequence AGGTTAGAAG showed switch fluorescence ratio equal to 1.01

get_value(item= AAGTTAGTTT , readout=switch fluorescence ratio) returns 0.966

Reported switch fluorescence ratio for TAGGGCCCGG was 1.03

switch fluorescence ratio reading for GGGTTGGAAA : 0.989

Value of measured switch fluorescence ratio for the entry TATTCGTTCT : 0.998

Looking up GGTCGCAGGG , I found its switch fluorescence ratio recorded as 1

Consider AGAAAAAAAG . Its measured switch fluorescence ratio is 1.02

In plain terms, ATAAACGGCG has a documented switch fluorescence ratio of 1.01

Per the records, this sequence ( GTTTAGGGGT ) has switch fluorescence ratio equal to 1.03
